- System: CAKI-1 renal
- experiment_notes: NCI tumour cell line growth inhibition, 48 h
Known TGI of a selection of compounds
quantity_kind: TGI (µM)

compound: O=C1Nc2ccc(Br)cc2C12CC(c1ccccc1)=NN2 (stereo not given)
quantity_kind: TGI
censoring_sign: =
observed_measurement: 16.6
//
compound: CNC(=O)c1n[nH]n(C2CCCCC2)c1=S
quantity_kind: TGI
censoring_sign: >
observed_measurement: 100
//
compound: CCOC(=O)CSc1cc(Cl)c(C)cc1S(=O)(=O)/N=C(/N=C/c1ccc([N+](=O)[O-])s1)NNC
quantity_kind: TGI
censoring_sign: =
observed_measurement: 49.3
//
compound: Cc1ccc(/C=C2\Sc3scc(-c4ccccc4)[n+]3C2=O)cc1
quantity_kind: TGI
censoring_sign: =
observed_measurement: 33.4
//
compound: COc1cc([N+](=O)[O-])c(OC)cc1-c1nc2sc(C)c(C)n2c1/C(N)=N/C(=N)N
quantity_kind: TGI
censoring_sign: >
observed_measurement: 100
//
compound: COc1cc(/C=C/C(=O)c2cccc(-n3cc(-c4cc(OC)c(OC)c(OC)c4)[nH]c3=O)c2)cc(OC)c1OC
quantity_kind: TGI
censoring_sign: =
observed_measurement: 9.91
//
compound: CN(C)CCNc1ccc2ncn3c4ccccc4c(=O)c1c23
quantity_kind: TGI
censoring_sign: =
observed_measurement: 12.9
//
compound: CCC(NC(C)c1ccccc1)C(=O)c1ccc(OCc2ccccc2)c(OCc2ccccc2)c1 (stereo not given)
quantity_kind: TGI
censoring_sign: >
observed_measurement: 100
//
compound: C[C@@H](CC(O)C(O)C(C)(C)O)C1CCC23CC12CCC1[C@@]2(C)CCC(O)C(C)(C)C2CC(OC2OC(CO)C(O)C(O)C2O)[C@]13C (stereo not given in full)
quantity_kind: TGI
censoring_sign: >
observed_measurement: 10
//
compound: CC1=NN(c2nc(N)nc(NS(=O)(=O)c3cc(C)c(Cl)cc3S)n2)C(C)(C)C1
quantity_kind: TGI
censoring_sign: >
observed_measurement: 10
//
compound: COc1ccc(C2=Nc3c(nc(OC)[nH]c3=O)NC(c3ccccc3)C2)cc1 (stereo not given)
quantity_kind: TGI
censoring_sign: >
observed_measurement: 100
//
compound: Cc1ccc(C(=O)CC2(O)C(=O)Nc3c(C)cc(Cl)cc32)cc1 (stereo not given)
quantity_kind: TGI
censoring_sign: >
observed_measurement: 100
//
compound: CSc1nc(=S)[nH]c2c1c(C)nn2-c1ccccc1
quantity_kind: TGI
censoring_sign: =
observed_measurement: 40.3
//
compound: FC(F)(F)c1ccccc1C1SCC2=Nc3ccccc3CN21 (stereo not given)
quantity_kind: TGI
censoring_sign: >
observed_measurement: 100
//
compound: COC1(CC[C@@H](C)COC2OC(CO)C(O)C(O)C2O)O[C@H]2C[C@H]3[C@@H]4CC=C5C[C@@H](OC6OC(CO)C(OC7OC(C)C(O)C(O)C7O)C(O)C6OC6OC(C)C(O)C(O)C6O)CC[C@]5(C)[C@H]4CC[C@]3(C)[C@H]2[C@@H]1C (stereo not given in full)
quantity_kind: TGI
censoring_sign: =
observed_measurement: 2.61
//
compound: CC(C)/C=C1\CCC(CN(C)C)C1=O (stereo not given)
quantity_kind: TGI
censoring_sign: =
observed_measurement: 4.21
//
compound: CCCCN(CCCC)C(=O)[C@H](CC)[C@@H]1CC[C@@H](C)[C@@H]([C@H](C)[C@@H](O)[C@@H](C)C(=O)[C@H](CC)C2O[C@]3(C=C[C@@H](O)[C@]4(CC[C@@](C)([C@H]5CC[C@](O)(CC)[C@H](C)O5)O4)O3)[C@H](C)C[C@@H]2C)O1 (stereo not given in full)
quantity_kind: TGI
censoring_sign: =
observed_measurement: 9.02
//
compound: NS(=O)(=O)c1ccc(NC(=O)N/N=C/c2ccccc2O)cc1
quantity_kind: TGI
censoring_sign: >
observed_measurement: 100
//
compound: O=C(CNc1ccccn1)Nn1cnc2ccc(S(=O)(=O)Nc3ccccn3)cc2c1=O
quantity_kind: TGI
censoring_sign: >
observed_measurement: 100
//
compound: O=C(Cc1ccccc1)NN1C(=O)C(Cl)C1c1ccccc1Cl (stereo not given)
quantity_kind: TGI
censoring_sign: >
observed_measurement: 100
//
compound: Cc1ccc(CNc2ccc(Br)cc2)cc1
quantity_kind: TGI
censoring_sign: >
observed_measurement: 100
//
compound: Oc1ccc(Cl)cc1C(c1cc(Cl)ccc1O)C(Cl)(Cl)Cl
quantity_kind: TGI
censoring_sign: =
observed_measurement: 6.06
//
compound: CC(C)N(C(=O)C12C3C4C1C1C2C3C41C#N)C(C)C (stereo not given)
quantity_kind: TGI
censoring_sign: >
observed_measurement: 100
//
compound: O=C1NC(=NCCc2ccc(F)cc2)S/C1=C\c1ccc2ncccc2c1
quantity_kind: TGI
censoring_sign: >
observed_measurement: 25
//
compound: COc1cc2ccc3c4ccccc4cnc3c2cc1OC
quantity_kind: TGI
censoring_sign: >
observed_measurement: 100
//
compound: O=C1N/C(=N\N=C\c2ccccc2)C(c2ccccc2)O1 (stereo not given)
quantity_kind: TGI
censoring_sign: >
observed_measurement: 100
//
compound: COc1ccc(Nc2nc3ccccc3n3cccc23)cc1OC
quantity_kind: TGI
censoring_sign: =
observed_measurement: 89.1
//
compound: CN(C)c1ccc(/C=C/C(=O)c2ccc(O)cc2)cc1
quantity_kind: TGI
censoring_sign: >
observed_measurement: 100
//
compound: NS(=O)(=O)c1ccc(Nc2cc(-c3ccc(O)c(F)c3)[nH]n2)cc1
quantity_kind: TGI
censoring_sign: >
observed_measurement: 25
//
compound: CC(C)(C)c1cc(C(=O)Nc2ccccc2C(=O)NCCN)cc(C(C)(C)C)c1
quantity_kind: TGI
censoring_sign: =
observed_measurement: 5.56
//
compound: CC(=O)Nc1ccc(C(=O)CCl)cc1
quantity_kind: TGI
censoring_sign: =
observed_measurement: 3.24
//
compound: O=C(O/N=C1\CCCC\C1=C/c1ccccc1)c1ccc([N+](=O)[O-])cc1
quantity_kind: TGI
censoring_sign: >
observed_measurement: 100
//
compound: COc1ccc2[nH]c3c(c2c1)[C@H](c1ccccc1)C[C@@H]1C(=O)N(c2ccccc2)C(=O)[C@H]31
quantity_kind: TGI
censoring_sign: =
observed_measurement: 71.7
//
compound: CC(C)=CCCC(C)(OC1OC(CO)C(O)C(O)C1O)C1CCC2(C)C1C(O)CC1C3(C)CCC(O)C(C)(C)C3C(OC3OC(CO)C(O)C(O)C3OC3OC(C)C(O)C(O)C3O)CC12C (stereo not given) (tested in a mixture with another compound)
quantity_kind: TGI
censoring_sign: >
observed_measurement: 75
//
compound: CO[C@H]1C[C@@H]2CC[C@@H](C)[C@@](O)(O2)C(=O)C(=O)N2CCCC[C@H]2C(=O)O[C@H]([C@H](C)C[C@@H]2CC[C@@H](OC(=O)C(C)(CO)CO)[C@H](OC)C2)CC(=O)[C@H](C)/C=C(\C)[C@@H](O)[C@@H](OC)C(=O)[C@H](C)C[C@H](C)\C=C/C=C/C=C/1C
quantity_kind: TGI
censoring_sign: >
observed_measurement: 10
